All figures here come from BigSolDB 2.1.

settings: in 2-butanone, 323.15 K
metric_name: solubility (mole fraction)
Just the number, please, no unit after it.

compound O=C1C(CCS(=O)c2ccccc2)C(=O)N(c2ccccc2)N1c1ccccc1 (stereo unspecified) , solubility (mole fraction) observed: 0.0601

* * *

conditions: in ethanol, 318.15 K
metric_name: solubility (mole fraction)
Just the number, please, no unit after it.

molecule O=C1C(CCS(=O)c2ccccc2)C(=O)N(c2ccccc2)N1c1ccccc1 (stereo unspecified) , solubility (mole fraction) observed: 0.00956

* * *

conditions: in 2-butanone, 293.15 K
metric_name: solubility (mole fraction)

compound O=C1C(CCS(=O)c2ccccc2)C(=O)N(c2ccccc2)N1c1ccccc1 (stereo unspecified) , solubility (mole fraction) observed: 0.0199
